molecular target: α7-nAChR (Mus musculus, UniProt P49582); assay: biochemical; assay type: binding, C57BL/6J mice
Sequence (P49582 23-502): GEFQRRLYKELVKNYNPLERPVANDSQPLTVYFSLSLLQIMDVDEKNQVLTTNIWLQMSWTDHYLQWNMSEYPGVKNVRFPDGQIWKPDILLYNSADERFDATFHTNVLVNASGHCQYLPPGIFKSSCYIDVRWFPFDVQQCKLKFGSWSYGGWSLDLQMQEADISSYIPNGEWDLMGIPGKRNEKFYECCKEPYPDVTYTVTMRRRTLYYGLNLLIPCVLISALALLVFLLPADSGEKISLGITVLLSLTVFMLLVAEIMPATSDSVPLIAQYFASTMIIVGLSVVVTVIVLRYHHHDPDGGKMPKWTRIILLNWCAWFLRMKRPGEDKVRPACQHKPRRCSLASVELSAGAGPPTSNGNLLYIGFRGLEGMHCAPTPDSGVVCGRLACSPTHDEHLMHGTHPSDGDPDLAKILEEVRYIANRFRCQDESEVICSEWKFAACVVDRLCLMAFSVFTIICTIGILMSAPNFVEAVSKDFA

{"molecule": "CN1CCC[C@H]1c1cccnc1", "Ki (nM)": 930}
{"molecule": "O=c1cccc2n1C[C@@H]1CNC[C@H]2C1 [cytisine, reference compound]", "Ki (nM)": 1580}

###

molecular target: β2*-nAChR (Mus musculus, UniProt O70174+Q9ERK7); experiment: biochemical; format: binding, C57BL/6J mice
Sequence (O70174 31-629): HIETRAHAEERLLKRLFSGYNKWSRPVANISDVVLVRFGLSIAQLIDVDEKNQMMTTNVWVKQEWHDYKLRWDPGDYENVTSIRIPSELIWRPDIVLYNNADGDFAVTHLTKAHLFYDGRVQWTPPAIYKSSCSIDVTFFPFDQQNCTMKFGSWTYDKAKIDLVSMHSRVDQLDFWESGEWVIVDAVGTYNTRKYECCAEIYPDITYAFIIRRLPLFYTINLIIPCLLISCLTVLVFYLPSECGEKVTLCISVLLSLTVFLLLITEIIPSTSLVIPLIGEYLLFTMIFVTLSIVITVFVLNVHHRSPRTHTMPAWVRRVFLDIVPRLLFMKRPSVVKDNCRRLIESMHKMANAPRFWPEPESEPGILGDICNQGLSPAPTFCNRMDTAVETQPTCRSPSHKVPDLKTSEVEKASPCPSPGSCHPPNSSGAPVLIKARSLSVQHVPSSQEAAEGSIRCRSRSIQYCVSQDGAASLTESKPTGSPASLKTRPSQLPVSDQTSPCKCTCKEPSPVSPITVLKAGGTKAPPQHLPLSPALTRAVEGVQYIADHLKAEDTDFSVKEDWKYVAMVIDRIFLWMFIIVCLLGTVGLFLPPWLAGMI
Sequence (Q9ERK7 26-501): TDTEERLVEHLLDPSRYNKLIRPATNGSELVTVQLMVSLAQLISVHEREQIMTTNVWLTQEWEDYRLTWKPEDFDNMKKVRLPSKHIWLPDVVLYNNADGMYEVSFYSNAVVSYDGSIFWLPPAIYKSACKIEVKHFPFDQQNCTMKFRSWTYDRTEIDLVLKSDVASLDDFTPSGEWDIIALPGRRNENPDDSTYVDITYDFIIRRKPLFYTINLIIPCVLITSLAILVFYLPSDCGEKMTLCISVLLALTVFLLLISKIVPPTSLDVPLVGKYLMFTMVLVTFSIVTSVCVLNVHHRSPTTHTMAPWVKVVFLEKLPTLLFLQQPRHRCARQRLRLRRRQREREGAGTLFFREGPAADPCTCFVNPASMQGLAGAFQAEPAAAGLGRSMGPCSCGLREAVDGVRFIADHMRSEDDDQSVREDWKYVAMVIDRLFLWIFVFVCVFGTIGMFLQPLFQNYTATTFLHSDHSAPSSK
pKi: −log10 of the molar value.
recorded-metric: pKi

{"compound": "O=c1cccc2n1C[C@@H]1CNC[C@H]2C1 [cytisine, reference compound]", "target-under-test": "β2*-nAChR (Mus musculus, UniProt O70174+Q9ERK7)", "measured-number": 9.46}
